Origin of the recorded values: paper PMC12461553

system: MCF-7 cells; test: SRB cytotoxicity assay, MCF-7; type: cell-based, human; settings: Homo sapiens, MCF7, 48 h, read-out: Average cell death (%) MCF-7
cytotoxicity at 25 µM for assorted molecules
Hi! Could you send only the number? It should be in %, unit omitted.

Illustrative cases are given below, each with its answer.
molecule="Cn1c2ccccc2c2c(C(=O)c3ccc(F)cc3)c(-c3ccccc3)n(Cc3ccccc3)c(=O)c21 [9e]" test_target="MCF-7 cells" numeric_result=2
molecule="COc1ccc(C(=O)c2c(-c3ccccc3)n(CCc3ccccc3)c(=O)c3c2c2ccccc2n3C)cc1 [10b]" test_target="MCF-7 cells" numeric_result=10.1
molecule="Cc1ccc(C(=O)c2c(-c3ccccc3)n(Cc3ccccc3)c(=O)c3c2c2ccccc2n3C)cc1 [9c]" test_target="MCF-7 cells" numeric_result=75.1

Value of cytotoxicity at 25 µM reported for the molecule Cn1c2ccccc2c2c(C(=O)c3ccc(C(F)(F)F)cc3)c(-c3ccccc3)n(Cc3ccccc3)c(=O)c21 [9d] is 14.2

====

cytotoxicity at 25 µM for assorted compounds
system: MDA-MB-231 cells; test: SRB cytotoxicity assay, MDA-MB-231; format: cell-based, human; settings: Homo sapiens, MDA-MB-231, 48 h, read-out: Average cell death (%) MDA-MB-231
Number first, unit second: that is the form wanted.

compound="Cn1c2ccccc2c2c(C(=O)c3ccc(C(F)(F)F)cc3)c(-c3ccccc3)n(CCc3ccccc3)c(=O)c21 [10d]" result=11.5%
compound=Cn1c2ccccc2c2c(C(=O)c3ccc(C(F)(F)F)cc3)c(-c3ccccc3)n(Cc3ccccc3)c(=O)c21 result=11.3%
compound="Cc1ccc(C(=O)c2c(-c3ccccc3)n(-c3nc4ccccc4s3)c(=O)c3c2c2ccccc2n3C)cc1 [12c]" result=31.3%

Consider now this further compound.
Value of cytotoxicity at 25 µM reported for the compound CCCCn1c(-c2ccccc2)c(C(=O)c2ccc(C(F)(F)F)cc2)c2c3ccccc3n(C)c2c1=O [11d] is 14.7%

====

test system: MDA-MB-231 cells; test: SRB cytotoxicity assay, MDA-MB-231; format: cell-based, human; conditions: Homo sapiens, MDA-MB-231, 48 h, read-out: Average cell death (%) MDA-MB-231
cytotoxicity at 25 µM for assorted molecules
Hi! Could you send only the number? It should be in %, unit omitted.

molecule="Cn1c2ccccc2c2c(C(=O)c3ccccc3)c(-c3ccccc3)n(CCc3ccccc3)c(=O)c21 [10a]" observed_property="cytotoxicity at 25 µM" units_symbol=% numeric_result=3.66
molecule=Cn1c2ccccc2c2c(C(=O)c3ccccc3)c(-c3ccccc3)n(Cc3ccccc3)c(=O)c21 observed_property="cytotoxicity at 25 µM" units_symbol=% numeric_result=32.8
molecule="Cn1c2ccccc2c2c(C(=O)c3ccc(F)cc3)c(-c3ccccc3)n(CCc3ccccc3)c(=O)c21 [10e]" observed_property="cytotoxicity at 25 µM" units_symbol=% numeric_result=4
molecule="Cn1c2ccccc2c2c(C(=O)c3ccc(C(F)(F)F)cc3)c(-c3ccccc3)n(-c3nc4ccccc4s3)c(=O)c21 [12d]" observed_property="cytotoxicity at 25 µM" units_symbol=% numeric_result=24.5
molecule="CCCCn1c(-c2ccccc2)c(C(=O)c2ccccc2)c2c3ccccc3n(C)c2c1=O [11a]" observed_property="cytotoxicity at 25 µM" units_symbol=% numeric_result=36.6

For COc1ccc(C(=O)c2c(-c3ccccc3)n(Cc3ccccc3)c(=O)c3c2c2ccccc2n3C)cc1 on MDA-MB-231 cells, measured cytotoxicity at 25 µM was 20.2

For CCCCn1c(-c2ccccc2)c(C(=O)c2ccc(OC)cc2)c2c3ccccc3n(C)c2c1=O [11b] on MDA-MB-231 cells, measured cytotoxicity at 25 µM was 30.3

For Cc1ccc(C(=O)c2c(-c3ccccc3)n(CCc3ccccc3)c(=O)c3c2c2ccccc2n3C)cc1 [10c] on MDA-MB-231 cells, measured cytotoxicity at 25 µM was 15.6

For COc1ccc(C(=O)c2c(-c3ccccc3)n(CCc3ccccc3)c(=O)c3c2c2ccccc2n3C)cc1 [10b] on MDA-MB-231 cells, measured cytotoxicity at 25 µM was 2.64

For Cn1c2ccccc2c2c(C(=O)c3ccccc3)c(-c3ccccc3)n(-c3nc4ccccc4s3)c(=O)c21 [12a] on MDA-MB-231 cells, measured cytotoxicity at 25 µM was 26.9

For Cn1c2ccccc2c2c(C(=O)c3ccc(F)cc3)c(-c3ccccc3)n(-c3nc4ccccc4s3)c(=O)c21 [12e] on MDA-MB-231 cells, measured cytotoxicity at 25 µM was 34.9

For CCCCn1c(-c2ccccc2)c(C(=O)c2ccc(C)cc2)c2c3ccccc3n(C)c2c1=O [11c] on MDA-MB-231 cells, measured cytotoxicity at 25 µM was 31.2

====

tested on: MCF-7 cells; assay: SRB cytotoxicity assay, MCF-7; type: cell-based, human; settings: Homo sapiens, MCF7, 48 h, read-out: Average cell death (%) MCF-7
Observed Property: cytotoxicity at 25 µM (%)
Hi! Could you send only the number? It should be in %, unit omitted.

Illustrative cases are given below, each with its answer.
compound=Cn1c2ccccc2c2c(C(=O)c3ccccc3)c(-c3ccccc3)n(Cc3ccccc3)c(=O)c21 observed_property="cytotoxicity at 25 µM" units_symbol=% numeric_result=9.16
compound="Cn1c2ccccc2c2c(C(=O)c3ccccc3)c(-c3ccccc3)n(CCc3ccccc3)c(=O)c21 [10a]" observed_property="cytotoxicity at 25 µM" units_symbol=% numeric_result=1.67
compound="Cn1c2ccccc2c2c(C(=O)c3ccc(C(F)(F)F)cc3)c(-c3ccccc3)n(CCc3ccccc3)c(=O)c21 [10d]" observed_property="cytotoxicity at 25 µM" units_symbol=% numeric_result=9.32
compound="Cc1ccc(C(=O)c2c(-c3ccccc3)n(CCc3ccccc3)c(=O)c3c2c2ccccc2n3C)cc1 [10c]" observed_property="cytotoxicity at 25 µM" units_symbol=% numeric_result=26.2
compound="Cn1c2ccccc2c2c(C(=O)c3ccc(F)cc3)c(-c3ccccc3)n(CCc3ccccc3)c(=O)c21 [10e]" observed_property="cytotoxicity at 25 µM" units_symbol=% numeric_result=8.92

Consider now this further compound.
Value of cytotoxicity at 25 µM reported for the compound COc1ccc(C(=O)c2c(-c3ccccc3)n(Cc3ccccc3)c(=O)c3c2c2ccccc2n3C)cc1 is 18.3

====

cytotoxicity at 25 µM for assorted compounds
tested on: MDA-MB-231 cells; test: SRB cytotoxicity assay, MDA-MB-231; assay type: cell-based, human; conditions: Homo sapiens, MDA-MB-231, 48 h, read-out: Average cell death (%) MDA-MB-231
Number first, unit second: that is the form wanted.

Value of cytotoxicity at 25 µM reported for the compound Cc1ccc(C(=O)c2c(-c3ccccc3)n(Cc3ccccc3)c(=O)c3c2c2ccccc2n3C)cc1 is 94.7%

Value of cytotoxicity at 25 µM reported for the compound Cn1c2ccccc2c2c(C(=O)c3ccc(F)cc3)c(-c3ccccc3)n(Cc3ccccc3)c(=O)c21 is 7.54%

Value of cytotoxicity at 25 µM reported for the compound COc1ccc(C(=O)c2c(-c3ccccc3)n(-c3nc4ccccc4s3)c(=O)c3c2c2ccccc2n3C)cc1 [12b] is 4.08%

Value of cytotoxicity at 25 µM reported for the compound CCCCn1c(-c2ccccc2)c(C(=O)c2ccc(F)cc2)c2c3ccccc3n(C)c2c1=O [11e] is 31.8%
